- assayed.system: T1, recombinant human Siglec-8 extracellular domain (ECD) (human, UniProt Q9NYZ4 17-363)
- T1 construct: extracellular domain; also called Siglec-8 ECD; full Siglec-8 ECD
- T1 sequence (Q9NYZ4 17-363): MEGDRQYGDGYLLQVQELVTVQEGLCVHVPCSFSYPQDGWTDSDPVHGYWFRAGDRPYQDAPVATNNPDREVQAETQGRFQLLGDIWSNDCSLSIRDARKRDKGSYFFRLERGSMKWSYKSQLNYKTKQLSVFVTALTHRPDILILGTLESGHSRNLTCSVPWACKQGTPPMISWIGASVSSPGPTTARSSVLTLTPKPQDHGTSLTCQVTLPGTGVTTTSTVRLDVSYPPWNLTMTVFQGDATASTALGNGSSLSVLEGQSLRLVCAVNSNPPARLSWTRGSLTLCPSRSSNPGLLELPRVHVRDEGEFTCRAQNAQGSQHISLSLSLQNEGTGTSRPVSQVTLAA
- assay.name: ELISA, coated Siglec-8 ECD
- Description: Binding of recombinant human Siglec-8 extracellular domain (ECD) by chimeric 2E2 and chimeric 2C4 IgG1K antibodies was measured by ELISA. […] Three-fold serial dilutions of a chimeric antibody (ch2E2 or ch2C4) or mouse antibody (m2E2 or m2C4) in 0.2% BSA/TBS (starting concentration was 5000 ng/mL) was added to each coated well. […] The optical density or the experimental samples was read at 650 nm using the ELISA reader PHERAStar FS (BMG Labtech). […]
Parameter: pEC50. Scope: all listed entries.
Remember the convention: pEC50 equals -log10 of concentration in molar.

Example entries and their recorded answers appear below.
binder	observed.property	result.value
HFKA (antibody, human IgG1, V domains shown, human IgG1/kappa) VH: EVQLVESGGGLVQPGGSLRLSCAASGFSLTIYGAHWVRQAPGKGLEWVSVIWAGGSTNYNSALMSRLTISKDNSKNTVYLQMNSLRAEDTAVYYCARDGSSPYYYSMEYWGQGTTVTVSS VL: EIVLTQSPATLSLSPGERATLSCSATSSVSYMHWFQQKPGQAPRLLIYSTSNLASGIPARFSGSGSGTDFTLTISSLEPEDFAVYYCQQRSSYPFTFGPGTKLDIK	pEC50	9.97
HGKC (antibody, human IgG1, V domains shown, human IgG1/kappa) VH: EVQLVESGGGLVQPGGSLRLSCAASGFSLTIYGAHWVRQAPGKGLEWVSVIWAGGSTNYNSALMSRFSISKDNSKNTVYLQMNSLRAEDTAVYYCARDGSSPYYYSMEYWGQGTTVTVSS VL: EIILTQSPATLSLSPGERATLSCSATSSVSYMHWFQQKPGQAPRLLIYSTSNLASGIPARFSGSGSGTDFTLTISSLEPEDFAVYYCQQRSSYPFTFGPGTKLDIK	pEC50	10.19
RHE Y-VKB (antibody, human IgG1, V domains shown, human IgG1/kappa) VH: EVQLVESGGGLVQPGGSLRLSCAASGFSLTIYGAHWVRQAPGKGLEWVGVIWAGGSTNYNSALMSRFTISKDNSKNTVYLQMNSLRAEDTAVYYCARDGSSPYYYSMEVWGQGTTVTVSS VL: EIILTQSPATLSLSPGERATLSCSATSSVSYMHWFQQKPGQAPRLWIYSTSNLASGVPARFSGSGSGTDYTLTISSLEPEDFAVYYCQQRSSYPFTFGPGTKLDIK	pEC50	9.51
RHE E-DKD (antibody, human IgG1, V domains shown, human IgG1/kappa) VH: EVQLVESGGGLVQPGGSLRLSCAASGFSLTIYGAHWVRQAPGKGLEWVGVIWAGGSTNYNSALMSRFTISKDNSKNTVYLQMNSLRAEDTAVYYCARDGSSPYYYSMDYWGQGTTVTVSS VL: EIVLTQSPATLSLSPGERATLSCSATSSVSYMHWFQQKPGQAPRLWIYSTSNLASGIPARFSGSGSGTDFTLTISSLEPEDFAVYYCQQRSSYPFTFGPGTKLDIK	pEC50	9.50

Q: Look up pEC50: HGKF (antibody, human IgG1, V domains shown, human IgG1/kappa) VH: EVQLVESGGGLVQPGGSLRLSCAASGFSLTIYGAHWVRQAPGKGLEWVSVIWAGGSTNYNSALMSRFSISKDNSKNTVYLQMNSLRAEDTAVYYCARDGSSPYYYSMEYWGQGTTVTVSS VL: EIVLTQSPATLSLSPGERATLSCSATSSVSYMHWFQQKPGQAPRLLIYSTSNLASGIPARFSGSGSGTDYTLTISSLEPEDFAVYYCQQRSSYPFTFGPGTKLDIK
Result: 10.06
